Would you mind telling me the reported viability, T/C of each entry?
tested on: 777334-354-R2-J4-PDC tumor spheroids with HUVEC/MSC, viability; experiment: Anticancer human tumor 777334-354-R2-J4-PDC patient-derived pancreatic adenocarcinoma cell line growth inhibition [GQUAD]; conditions: second compound 3.16 µM; first compound 1 µM; stronger effect = lower value;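 further: spheroids exposed to compounds for 7 days before readout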
Give bare numbers, in %.

Solved entries:
| compound | viability, T/C (%) |
| --- | --- |
| C=CC(=O)N1CCN(c2nc(=O)n(-c3c(C)ccnc3C(C)C)c3nc(-c4c(O)cccc4F)c(F)cc23)C(C)C1 (stereo not given) + CN(C)c1ccc(Nc2c3ccc(NC(=O)CCN4CCCC4)cc3nc3cc(NC(=O)CCN4CCCC4)ccc23)cc1 | 107 |
| CC1COCCN1c1cc(-c2ccnn2C)c2ccnc(-c3ccn[nH]3)c2n1 (stereo not given) + CN(C)c1ccc(Nc2c3ccc(NC(=O)CCN4CCCC4)cc3nc3cc(NC(=O)CCN4CCCC4)ccc23)cc1 | 46.9 |
| O=C(c1cc(Cc2n[nH]c(=O)c3ccccc23)ccc1F)N1CCN(C(=O)C2CC2)CC1 + Cc1[nH]c2ccc(F)cc2c1-c1nc2c3cccnc3c3ncccc3c2[nH]1 | 38.2 |
| CC1COCCN1c1cc(C2(O)CC3CCC(C2)O3)c2cnn(-c3ccn[nH]3)c2n1 (stereo not given) + CN(C)c1ccc(Nc2c3ccc(NC(=O)CCN4CCCC4)cc3nc3cc(NC(=O)CCN4CCCC4)ccc23)cc1 | 34.7 |

Annotate the compound COc1cccc2c1C(=O)c1c(O)c3c(c(O)c1C2=O)CC(O)(C(=O)CO)CC3OC1CC(N)C(O)C(C)O1 (stereo not given) + Cc1[nH]c2ccc(F)cc2c1-c1nc2c3cccnc3c3ncccc3c2[nH]1 with its measured viability, T/C.
16.7

Where these numbers come from: PubChem BioAssay AID2060499
